Where do the numbers come from? From ChEMBL document CHEMBL1159044.

- Tested on: KB
- assayRemarks: Cytotoxicity against human KB after 72 hrs by SRB assay
- Type: functional
- measurementSetup: read-out: ED50 (the source's name)
recordedMetric: pEC50
Just the number, please; pEC50 means minus log10 of the concentration in mol/L.

Sample answers from the record:
{"compoundStructureString": "Cc1coc2cc(-c3ccc(O)c(O)c3)oc(=O)c12", "quantitativeResult": 4.69}
{"compoundStructureString": "Cc1cccc(-c2cc3occ(C)c3c(=O)o2)c1", "quantitativeResult": 4.36}
{"compoundStructureString": "Cc1coc2cc(-c3cccc(O)c3)oc(=O)c12", "quantitativeResult": 4.19}

Q) So what does the record say about pEC50 for CCOc1cccc(-c2cc3occ(C)c3c(=O)o2)c1 ?
A) 4.19
